Data provenance: patent US11505543B2

Please provide measured EC50 for the entries that follow.
Tested on: recombinant NL4-3 virus (nef section replaced with Renilla luciferase gene) in MT-2 cells
Test Protocol: HIV cell culture assay (antiviral activity, luciferase readout)
Assay type: cell-based
Assay Context: Renilla, NL43, MT-2 cells infected for 4-5 days with recombinant NL4-3 Renilla luciferase virus, serial dilutions of compound

Indicate its recorded EC50; the molecule in question is Cc1c(-c2ccc3c(=O)n(-c4ccc(Cl)c5c(NS(C)(=O)=O)nn(C)c45)c([C@H](Cc4cc(F)cc(F)c4)NC(=O)Cn4nc(C(F)F)c5c4C(F)(F)[C@@H]4CC54)nc3c2)cc(F)c2c1CCCO2 (stereo in doubt) 2.1 nM

Find the measured EC50 of COc1cccc(-c2ccc3c(=O)n(-c4ccc(Cl)c5c(NS(C)(=O)=O)nn(C)c45)c([C@H](Cc4cc(F)cc(F)c4)NC(=O)Cn4nc(C(F)F)c5c4C(F)(F)[C@@H]4C[C@H]54)nc3c2)n1 (atropisomer, axis not shown; (aR)) and report it. 0.56 nM

Let me know recorded EC50 for Cn1nc(NS(C)(=O)=O)c2c(Cl)ccc(-n3c([C@H](Cc4cc(F)cc(F)c4)NC(=O)Cn4nc(C(F)F)c5c4C(F)(F)[C@@H]4C[C@H]54)nc4cc(-c5cncnc5)ccc4c3=O)c21 (atropisomer, axis not shown; (aR)) , thanks. 0.068 nM

Annotate the molecule `COc1ccc(-c2ccc3c(=O)n(-c4ccc(S(=O)(=O)N5CCOCC5)cc4)c([C@H](Cc4cc(F)cc(F)c4)NC(=O)Cn4nc(C(F)F)c5c4C(F)(F)[C@@H]4C[C@H]54)nc3c2)cn1` with its measured EC50. 4 nM

Quick one: give measured EC50 for CC(C)c1ccc(-c2ccc3c(=O)n(-c4ccc(Cl)c5c(NS(C)(=O)=O)nn(C)c45)c([C@H](Cc4cc(F)cc(F)c4)NC(=O)Cn4nc(C(F)F)c5c4C(F)(F)[C@@H]4C[C@H]54)nc3c2)cc1 (atropisomer, axis not shown; (aR)) 5.3 nM

Supply recorded EC50 for `Cc1ncc(-c2ccc3c(=O)n(-c4ccc(Cl)c5c(NS(=O)(=O)C6CC6)nn(CC(F)F)c45)c([C@H](Cc4cc(F)cc(F)c4)NC(=O)Cn4nc(C(F)F)c5c4C(F)(F)[C@@H]4C[C@H]54)nc3c2)cn1` here. 0.06 nM

Given `Cn1nc(NS(C)(=O)=O)c2c(Cl)ccc(-n3c([C@H](Cc4cc(F)cc(F)c4)NC(=O)Cn4nc(C(F)F)c5c4C(F)(F)[C@@H]4C[C@H]54)nc4cc(-c5ccc(F)c(C#N)c5F)ccc4c3=O)c21` , respond with its EC50. 0.58 nM

Look up EC50 of `Cc1cc(F)ccc1-c1ccc2c(=O)n(-c3ccc(S(=O)(=O)N4CCOCC4)cc3)c([C@H](Cc3cc(F)cc(F)c3)NC(=O)Cn3ccc(C4CC4)n3)nc2c1` and report it. 48 nM
